Field: protein stability index. Provide a value for each of the variants that follow.
B1: CCDC89 (parent)
chain: LNAELEEKMMQEAEKLKAQGEYSR

variants of: B1; assay: protein stability index of a GFP-peptide fusion (GPS, HEK-293T) (PSI 1-6); higher = more stable; settings: c terminus: a fixed tail appended;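 further: lentivirally expressed fusions sorted by FACS into six bins by GFP to DsRed ratio, PSI derived from sequencing read proportions per bin multiplied by bin number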
Numbers only.

Reported protein stability index for LNAELEEKMRQEAEKLKAQGEYSR : what is it?
5.25

// each variant listed below needs its protein stability index
1. LNAELEEKMMQEAEKLKAQGEYSQ
2. WNAELEEKMMQEAEKLKAQGEYSR
3. LNAELEEKMMQEAEKLKLQGEYSR
4. LNAELEEMMMQEAEKLKAQGEYSR
5. LNAELEEKMMQEGEKLKAQGEYSR

4.63
4.8
3.87
4.92
4.84

Give one value of protein stability index per listed variant.
1. ANAELEEKMMQEAEKLKAQGEYSR
2. LNACLEEKMMQEAEKLKAQGEYSR
3. LNAELEEKMMQKAEKLKAQGEYSR
4. LNAELEEKMMQEAIKLKAQGEYSR
5. LNAELEEKMMQEAEKLKAVGEYSR
6. LNAELEEKMMMEAEKLKAQGEYSR
7. LNAELEEKMMQEADKLKAQGEYSR
8. LNAENEEKMMQEAEKLKAQGEYSR

1: 5.74; 2: 3.98; 3: 4.67; 4: 4.27; 5: 5.57; 6: 4.18; 7: 5.19; 8: 5.44

Look up protein stability index for the entries below, preserving their order.
1. LNAELEEKMMQVAEKLKAQGEYSR
2. LNAELEEYMMQEAEKLKAQGEYSR
3. LNAELEEKMMQEAEKLKCQGEYSR
4. LNAELEEKMMQEAEKLKAQGECSR
5. LNAELTEKMMQEAEKLKAQGEYSR

4.12
4.46
4.79
5.25
3.27

I'm hoping you can list protein stability index for every variant here, please.
1. LNAELEEKMMQETEKLKAQGEYSR
2. RNAELEEKMMQEAEKLKAQGEYSR
3. LNAELEEKMMQEAEKLKAQGEDSR

5.26
5.17
5.99

All values here come from the supplement of paper PMC10567573.
